test-system: cGMP-dependent protein kinase (Eimeria tenella)
Sequence (Q8MMZ8 whole entry): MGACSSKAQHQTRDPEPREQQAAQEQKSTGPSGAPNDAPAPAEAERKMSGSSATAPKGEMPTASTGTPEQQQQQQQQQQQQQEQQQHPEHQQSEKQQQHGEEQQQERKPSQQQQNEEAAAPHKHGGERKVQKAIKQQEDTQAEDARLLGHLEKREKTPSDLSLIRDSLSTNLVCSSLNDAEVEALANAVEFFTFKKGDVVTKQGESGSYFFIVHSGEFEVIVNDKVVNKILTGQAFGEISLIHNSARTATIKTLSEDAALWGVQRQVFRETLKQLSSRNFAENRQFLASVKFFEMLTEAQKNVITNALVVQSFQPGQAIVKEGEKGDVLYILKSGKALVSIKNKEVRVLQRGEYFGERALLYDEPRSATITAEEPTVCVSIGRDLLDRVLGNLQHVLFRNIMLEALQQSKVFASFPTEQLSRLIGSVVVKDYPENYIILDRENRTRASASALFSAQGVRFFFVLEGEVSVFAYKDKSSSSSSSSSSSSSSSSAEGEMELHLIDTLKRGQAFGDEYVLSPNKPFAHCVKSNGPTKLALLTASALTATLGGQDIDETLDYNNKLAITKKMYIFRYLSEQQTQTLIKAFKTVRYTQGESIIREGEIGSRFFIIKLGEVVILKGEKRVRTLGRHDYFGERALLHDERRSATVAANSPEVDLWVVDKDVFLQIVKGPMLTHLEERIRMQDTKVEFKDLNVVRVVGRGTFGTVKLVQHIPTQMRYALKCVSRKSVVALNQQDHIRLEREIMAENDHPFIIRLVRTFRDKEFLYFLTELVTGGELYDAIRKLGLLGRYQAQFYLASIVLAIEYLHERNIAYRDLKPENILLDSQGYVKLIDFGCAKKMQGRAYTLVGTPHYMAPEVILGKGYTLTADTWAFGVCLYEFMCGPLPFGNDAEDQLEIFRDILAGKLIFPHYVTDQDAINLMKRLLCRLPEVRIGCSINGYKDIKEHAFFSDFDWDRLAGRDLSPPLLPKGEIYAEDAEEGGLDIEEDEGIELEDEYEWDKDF
pIC50: −log10 of the molar value.
Class Met: pIC50 at least 9. Class Not met: pIC50 below 9.

Lookup: Could you verify whether the entry Fc1ccc(-c2[nH]c(C3CCCN3)cc2-c2ccncc2)cc1 (centres undefined) shows pIC50 of no less than 9?
Found: Not met

Continuing:
Lookup: Could you verify whether the entry Fc1ccc(-c2[nH]c(CN3CCCCC3)cc2-c2ccncc2)cc1 shows pIC50 of no less than 9?
Found: Not met

Lookup: Now the compound CCN(C)CCCc1cc(-c2ccncc2)c(-c2ccc(F)cc2)[nH]1
Found: Not met

Lookup: Now the compound C[C@@H](O)CN1CCCC1c1cc(-c2ccncc2)c(-c2ccc(F)cc2)[nH]1 (some centres undefined)
Found: Not met

Lookup: Now the compound C[C@H](O)CN1CCCC1c1cc(-c2ccncc2)c(-c2ccc(F)cc2)[nH]1 (some centres undefined)
Found: Not met

Lookup: Now the compound CN(C)Cc1cc(-c2ccncc2)c(-c2ccc(F)cc2)[nH]1
Found: Met

---

Please consider the recorded pIC50 for cGMP-dependent protein kinase (Eimeria tenella, UniProt Q8MMZ8) in what follows.
Just so you know, pIC50 here is -log10 of the concentration in molar units; reply with that number alone.

# count of solved cases: 2
Lookup: Bench note: what pIC50 did O=S(=O)(c1ccc(F)cc1)N1CCCC1c1cc(-c2ccncc2)c(-c2ccc(F)cc2)[nH]1 (stereo not drawn) show?
Found: 8.82

Lookup: Now the molecule CC(C)C(c1cc(-c2ccncc2)c(-c2ccc(F)cc2)[nH]1)N(C)C (stereo not drawn)
Found: 9.15

Could you now consider this next molecule?
Lookup: Bench note: what pIC50 did Fc1ccc(-c2[nH]c(CN3CCC3)cc2-c2ccncc2)cc1 show?
Found: 8.89
